Reference source for all entries: ChEMBL document CHEMBL5308504

target: Peregrin (Homo sapiens); conditions: Compound concentration 20.0 uM, Protein concentration 2.0 uM, Result type QC Liability
For each record, write down the corresponding ΔTm.
Respond numerically; units are °C and should not be typed.

### Prompt State its ΔTm: Cc1cc2ncnn2cc1Nc1ncc2c(n1)n(C1CCOCC1)c(=O)n2C
### Response -4.35

### Prompt State its ΔTm: CN(C)C/C=C/C(=O)Nc1cc2c(Nc3ccc(F)c(Cl)c3)ncnc2cc1OC[C@@H]1CCCO1
### Response -0.41

### Prompt State its ΔTm: Cc1nn(-c2ccccc2)c(Nc2ccccc2C(=O)O)c1-c1cc2nccnc2c(F)c1F
### Response -2.93

### Prompt State its ΔTm: CN1CCN(c2ccc(/C=C(\C#N)c3ccccc3Br)cc2)CC1
### Response -2.48

### Prompt State its ΔTm: Cn1cnc(Cn2ccc3ccc(CNCc4[nH]c5ccccc5c4[C@H]4NC(=O)c5ccc(O)cc54)cc32)c1
### Response -2.61

### Prompt State its ΔTm: CCCN1CCC(C#N)(NC(=O)[C@H](CC(C)(C)C)NC(=O)N2CCOCC2)CC1
### Response -2.18

### Prompt State its ΔTm: CC1CN(CC(=O)N2CC(C)(C)c3nc(CO)c(Cc4ccc(F)cc4)cc32)C(CN2CCOCC2C)CN1 (stereo unspecified)
### Response -1.08

### Prompt State its ΔTm: COc1cc(C(=O)O)ncc1C#Cc1ccccc1NS(=O)(=O)c1cccc2c(N(C)C)ccnc12
### Response -0.45

### Prompt State its ΔTm: C[C@@H]1C[C@H](C)CN(c2ncc(Cl)c(Nc3ccc4c(c3)cc(OC(C)(C)C(=O)O)c(=O)n4C)n2)C1
### Response -3.96

### Prompt State its ΔTm: CN1CCN(c2ccc(-n3cc(-c4ccncc4OCC4CCNCC4)cn3)cc2)CC1
### Response -0.97

### Prompt State its ΔTm: NS(=O)(=O)c1ccc(Nc2nc(OCC3CCCCC3)c3nc[nH]c3n2)cc1
### Response 1.2

### Prompt State its ΔTm: CCC(C(=O)Nc1ccc(-c2cc3ccccc3s2)c(C(N)=O)c1)c1nccs1 (stereo unspecified)
### Response -1.09

### Prompt State its ΔTm: Oc1c(CN2CCCC2)cc(COCc2ccccc2)c2cccnc12
### Response -2.08

### Prompt State its ΔTm: Cn1c(C(=O)N[C@@H](CO)c2ccc(C(=O)O)cc2)cc2cc(Cl)ccc21
### Response -2.2

### Prompt State its ΔTm: Cc1nn(-c2nc3ccc(Cl)c(Cl)c3[nH]2)c(O)c1C1OC(=O)c2ccccc21 (stereo unspecified)
### Response -3.79

### Prompt State its ΔTm: CN(C)CCCN1c2ccccc2Sc2ccc(Cl)cc21
### Response -1.01

### Prompt State its ΔTm: COC(=O)c1sccc1S(=O)(=O)Nc1ccc(Nc2ccccc2)cc1OC
### Response -1.04

### Prompt State its ΔTm: CS(C)(=O)=Nc1ccc(-c2ccc(-c3nc4[nH]c(O[C@@H]5CO[C@H]6[C@@H]5OC[C@H]6O)nc4cc3Cl)cc2)cc1
### Response -3.2

### Prompt State its ΔTm: COc1cc2nc([C@@H]3CCCS(=O)(=O)C3)n(C)c2cc1NC(=O)c1cccc(C(C)(F)F)n1
### Response -2.41

### Prompt State its ΔTm: O=C(Nc1ccc(N2CCC(C(=O)N3CCOCC3)CC2)cc1)c1cnc(Oc2ccccc2)nc1
### Response -2.41

### Prompt State its ΔTm: Cc1ncc(C(=O)Nc2cc(C(C)(C)C)on2)cc1-n1cc(-c2cnn(C)c2C)nn1
### Response 0.08

### Prompt State its ΔTm: CC(C)(O)c1cn(-c2ccc(-c3cccc(S(C)(=O)=O)c3)cc2)c(C(C)(C)c2ccccc2Cl)n1
### Response -1.46

### Prompt State its ΔTm: CCc1ccc(-c2ncn(CC3(F)CCN(C)CC3)c2-c2ccnc3[nH]ccc23)nc1
### Response -1.47

### Prompt State its ΔTm: CC(C)C(=O)N[C@@H]1CCN(C(=O)Nc2nc3c(s2)-c2nc(-c4ccccc4Cl)ncc2CC3)C1
### Response -1.39

### Prompt State its ΔTm: Cc1ncsc1-c1ccc(CNC(=O)[C@@H]2C[C@H](O)CN2C(=O)[C@@H](NC(=O)C2(F)CC2)C(C)(C)C)c(OCCOc2ccc(CN3CCN(c4cc(-c5ccccc5O)nnc4N)CC3)cc2)c1 (relative stereo)
### Response 4.18

### Prompt State its ΔTm: Cn1cc(NC(=O)c2ccc3nc4n(c3c2)CCCNC4=O)nc1C(=O)NC1CCCC1
### Response -0.88

### Prompt State its ΔTm: O=c1[nH]c(CS[C@H]2CC[C@H](O)CC2)nc2cc(OCC3CC3)cc(F)c12
### Response -0.45

### Prompt State its ΔTm: C[C@@H](Oc1cc(-n2cnc3ccc(OC4CCN(C)CC4)cc32)sc1C(N)=O)c1ccccc1Cl
### Response 0.36

### Prompt State its ΔTm: Fc1ccc(-c2nc(-c3c(F)cccc3F)[nH]c2-c2ccncc2)cc1
### Response 0.63

### Prompt State its ΔTm: CCS(=O)(=O)c1ccc(OC)c(Nc2ncc(-c3cccc(F)c3)o2)c1
### Response -1.63

### Prompt State its ΔTm: CC1(C)Oc2ncnc(N)c2N=C1c1ccc([C@H]2CC[C@H](CC(=O)O)CC2)cc1
### Response -2.72

### Prompt State its ΔTm: O=C(CNC(=O)c1ccc(-c2ccccc2)cc1)NC1CCCc2ccccc21 (stereo unspecified)
### Response -4.59

### Prompt State its ΔTm: CCCCc1oc2ccccc2c1C(=O)c1cc(I)c(OCCN(CC)CC)c(I)c1
### Response -1.31

### Prompt State its ΔTm: CCN1C(=O)c2cc(C)ccc2N(C)c2ncccc21
### Response -1.83

### Prompt State its ΔTm: CN(C)[C@H]1CCc2nc(NC(=O)c3cccc(Cn4cc(-c5ccc(C#N)cc5)cn4)c3)sc2C1
### Response 0.07

### Prompt State its ΔTm: CC(C)S(=O)(=O)c1ccccc1Nc1nc(N[C@@H]2CCCN(CCCCCCCNC(=O)COc3cccc4c3C(=O)N(C3CCC(=O)NC3=O)C4=O)C2)ncc1Cl (stereo partly specified)
### Response 0.63
